For each entry below, report its Kd value.
- system under test: T1, dog serum albumin (dog, UniProt P49822 25-608)
- T1 construct: Bought protein, immobilized on a CM5 chip by amine coupling; also called Dog SA
- assay protocol: SPR (Biacore 8K), albumin immobilized on CM5 chip, 25 C, 1:1 kinetic fit
- Procedure: The immobilization of the serum albumin to a Series S Sensor Chip CM5 surface is performed according to the manufacturer's instructions (Amine Coupling Kit BR-1000-50). Briefly, carboxyl groups on the sensor chip surfaces (flow cell 1 and 2) are activated by injecting 70 μL of a mixture containing 75 mg/mL EDC and 11.5 mg/mL NHS at 10 μL/min. […]
Don't forget the unit after the value.

## Task Kd lookup needed for RLN Analog 4 (other, Single-chain fusion: VHH - (PGPQ)8 L1 - RLN2 B chain (desB1) - L2 - RLN2 A chain) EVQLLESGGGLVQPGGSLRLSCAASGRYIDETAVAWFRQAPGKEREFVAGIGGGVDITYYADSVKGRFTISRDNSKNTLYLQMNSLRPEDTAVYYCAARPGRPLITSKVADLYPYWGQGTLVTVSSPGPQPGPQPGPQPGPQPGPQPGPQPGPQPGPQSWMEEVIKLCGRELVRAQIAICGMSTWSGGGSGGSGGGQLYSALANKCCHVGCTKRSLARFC , thanks.
## Result 1 nM

## Task Kd lookup needed for RLN Analog 7 (other, Single-chain fusion: VHH - (G4Q)5 L1 - RLN2 B chain (desB1) - L2 - RLN2 A chain) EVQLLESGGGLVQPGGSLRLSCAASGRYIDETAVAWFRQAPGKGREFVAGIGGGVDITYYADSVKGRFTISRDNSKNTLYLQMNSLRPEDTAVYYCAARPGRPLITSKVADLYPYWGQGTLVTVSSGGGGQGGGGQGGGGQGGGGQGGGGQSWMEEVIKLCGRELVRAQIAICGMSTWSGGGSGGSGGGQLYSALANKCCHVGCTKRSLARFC , thanks.
## Result 0.69 nM

## Task Kd lookup needed for RLN Analog 2 (other, Single-chain fusion: VHH - (PGPA)8 L1 - RLN2 A chain - L2 - RLN2 B chain (desB1)) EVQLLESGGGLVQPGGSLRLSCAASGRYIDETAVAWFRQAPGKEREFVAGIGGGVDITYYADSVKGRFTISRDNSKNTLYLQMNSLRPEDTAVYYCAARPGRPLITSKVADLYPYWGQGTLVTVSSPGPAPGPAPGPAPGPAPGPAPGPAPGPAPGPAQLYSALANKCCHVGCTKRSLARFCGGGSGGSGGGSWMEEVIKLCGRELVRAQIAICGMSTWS , thanks.
## Result 1.4 nM

Source of measurements: patent US20260125446A1
